# experimental-target: RORc ligand binding domain (Homo sapiens, UniProt P51449)
# Construct: host or cells: E. coli
# Sequence (P51449 269-508 limits assumed): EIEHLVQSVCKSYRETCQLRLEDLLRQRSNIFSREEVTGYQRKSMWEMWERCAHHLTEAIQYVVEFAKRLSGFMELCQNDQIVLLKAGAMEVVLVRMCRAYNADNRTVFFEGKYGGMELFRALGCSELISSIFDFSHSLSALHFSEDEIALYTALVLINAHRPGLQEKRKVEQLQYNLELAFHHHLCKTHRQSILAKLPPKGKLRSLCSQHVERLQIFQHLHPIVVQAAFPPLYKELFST
# method-description: In Vitro RORc Ligand Binding Assay (25-[3H]hydroxycholesterol radioligand filtration)
# measurement-context: read-out: RORc IC50
measurement-kind: IC50 (nM)
Give the quantity in nM, number only.

Any idea what its IC50 is? The molecule is C[C@H]1CCC(c2ccccc2)S(=O)(=O)N1Cc1ccc(N2CCN(c3cnccn3)CC2)cc1F (stereo partly shown) [Example 441]
171

Any idea what its IC50 is? The molecule is C[C@H]1CCC(c2ccccc2)S(=O)(=O)N1Cc1ccc(OC[C@H]2CCC(=O)N2)cc1 (single isomer, unassigned) [Example 450]
1050

Any idea what its IC50 is? The molecule is C[C@H]1CCC(c2ccccc2)S(=O)(=O)N1Cc1ccc(NC(=O)C2CCN(S(C)(=O)=O)CC2)cc1F (stereo partly shown) [Example 459]
74

Any idea what its IC50 is? The molecule is CC1CN(S(C)(=O)=O)CCC1Nc1ccc(CN2[C@@H](C)CCC(c3ccccc3)S2(=O)=O)c(F)c1 (stereo partly shown) [Example 453]
9

Any idea what its IC50 is? The molecule is C[C@H]1CCC(c2ccccc2)S(=O)(=O)N1Cc1ccc(OCCN2CCOCC2)cc1 (stereo partly shown) [Example 438]
665

Any idea what its IC50 is? The molecule is CC(=O)N1CCN(c2ccc(CN3[C@@H](C)CCC(c4ccccc4)S3(=O)=O)c(F)c2)C[C@H]1C(=O)NCCO (stereo partly shown) [Example 399]
1590

Any idea what its IC50 is? The molecule is C[C@H]1CCC(c2ccccc2)S(=O)(=O)N1Cc1ccc(N2CC3(CC(n4cnnc4)C3)C2)cc1F (stereo partly shown) [Example 424]
427

Source of measurements: patent US9115101B2
